FYI, the data here is from PubChem BioAssay AID1851.

# target.of.assay: Cytochrome P450 1A2 (Homo sapiens) (UniProt P05177)
# Sequence (P05177 whole entry, looked up): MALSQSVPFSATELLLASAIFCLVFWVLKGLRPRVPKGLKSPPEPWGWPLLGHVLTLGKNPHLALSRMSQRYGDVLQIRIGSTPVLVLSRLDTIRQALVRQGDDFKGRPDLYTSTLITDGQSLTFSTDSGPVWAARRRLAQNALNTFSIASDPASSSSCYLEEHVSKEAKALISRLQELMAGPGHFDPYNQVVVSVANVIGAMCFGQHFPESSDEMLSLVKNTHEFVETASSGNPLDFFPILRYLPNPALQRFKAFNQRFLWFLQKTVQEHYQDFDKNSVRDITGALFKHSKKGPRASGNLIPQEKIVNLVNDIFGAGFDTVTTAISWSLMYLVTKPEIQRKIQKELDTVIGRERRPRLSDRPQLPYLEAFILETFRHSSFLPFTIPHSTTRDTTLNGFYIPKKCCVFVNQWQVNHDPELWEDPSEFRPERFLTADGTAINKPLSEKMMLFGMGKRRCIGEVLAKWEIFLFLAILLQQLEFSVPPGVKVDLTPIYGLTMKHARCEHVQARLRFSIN
# procedure.text: Cytochrome panel assay with activity outcomes
# condition.notes: recombinant CYP, pro-luciferin dealkylation, luminescence, p450-cyp1a2; series mostly up to 57.1 µM
The campaign covered roughly 16,000 compounds. About 5,700 (36%) were called active. Roughly 24% stayed inconclusive and do not appear here. Calls follow the shape of the dose curve; as a rule, active = well fitted curve in the direction sought with a large enough effect; inconclusive = small, poorly fitted or top-dose-only effect, or effect the other way; inactive = no such curve, though single readings can be large or run the other way. This is one part of the list.
Select the correct class. Options are active, inactive and nothing else.

Worked examples, 5 compounds total:
Oc1ccc2c3c1O[C@@H]1c4[nH]c5c(c4C[C@@]4(O)[C@@H](C2)N(CC2CC2)CC[C@]314)C[C@]1(O)[C@@H]2Cc3ccc(O)c4c3[C@@]1(CCN2CC1CC1)[C@H]5O4 :: inactive
NO :: inactive
CN1C(=O)C(=Cc2ccc(N3CCCCCC3)o2)C(=O)N(C)C1=S :: active
O=C1c2cc([N+](=O)[O-])ccc2-c2ccc3c4ccc5c6c(ccc(c7ccc1c2c73)c64)C(=O)c1cc([N+](=O)[O-])ccc1-5 :: active
Cc1ccccc1-c1cncnc1NCCc1cnc[nH]1 :: active

So what was the verdict on CN1CCCC2(CCN(C(=O)c3csnn3)CC2)C1 in this test? inactive

What is the recorded call for this compound in the test? Nc1nc(N)c2nc(CNc3ccc(C(=O)N[C@H](CCC(=O)O)C(=O)O)cc3)cnc2n1 inactive

How did this test come out for Cc1cc(NC(=O)CCC(=O)N2CCC3(CC2)OCCO3)no1 ? inactive

Answer briefly: the call reported for CN1C(=O)C(=Cc2ccc(N3CCCCC3)o2)C(=O)N(C)C1=S in this assay. active

Just curious, what result did C[C@@H](Cc1ccc(OCC(=O)O)cc1)NC[C@H](O)c1cccc(Cl)c1 get here? inactive

Tell me the assay call for COc1ccc(C[C@@H]2NC[C@H](O)[C@@H]2OC(C)=O)cc1 please. inactive

Recorded call for O=C(c1csnn1)N1CCC2(CC1)CN(Cc1ccncc1)C2 ? active
